target: T1, recombinant human IL-6 (human, UniProt P05231 30-212); assay: SPR (Biacore), purified IgG on Protein A, 37 C
T1 construct: Flowed in solution over the captured antibodies
T1 sequence (P05231 30-212 limits assumed): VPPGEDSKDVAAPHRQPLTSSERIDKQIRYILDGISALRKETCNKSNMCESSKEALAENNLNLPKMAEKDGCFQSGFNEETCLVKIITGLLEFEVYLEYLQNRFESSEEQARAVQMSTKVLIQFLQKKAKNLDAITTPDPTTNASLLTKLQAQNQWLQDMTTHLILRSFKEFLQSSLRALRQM
Listing: Kd of selected binders
// note: answer is a bare numeric in pM

[
  {
    "Binder": "anti-IL-6 antibody, heavy chain I108S, light chain WT (antibody, IgG1, V domains shown, Full IgG1 tested; V domains derived as in m2) VH: EVQLVESGGGLVQPGGSLRLSCAASGFTFSPFAMSWVRQAPGKGLEWVAKISPGGSWTYYSDTVTGRFTFSLDTSKSTAYLQMNSLRAEDTAVYYCARQLWGYYALDSWGQGTLVTVSS VL: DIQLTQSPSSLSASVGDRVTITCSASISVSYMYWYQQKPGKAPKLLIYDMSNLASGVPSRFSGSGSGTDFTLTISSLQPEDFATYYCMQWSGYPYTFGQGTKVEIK",
    "Metric": "Kd",
    "Result": 391
  },
  {
    "Binder": "anti-IL-6 antibody, heavy chain L106F, light chain WT (antibody, IgG1, V domains shown, Full IgG1 tested; V domains derived as in m2) VH: EVQLVESGGGLVQPGGSLRLSCAASGFTFSPFAMSWVRQAPGKGLEWVAKISPGGSWTYYSDTVTGRFTFSLDTSKSTAYLQMNSLRAEDTAVYYCARQLWGYYAFDIWGQGTLVTVSS VL: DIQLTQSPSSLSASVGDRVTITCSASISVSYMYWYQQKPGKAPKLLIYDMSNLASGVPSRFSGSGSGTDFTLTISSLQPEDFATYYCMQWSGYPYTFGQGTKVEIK",
    "Metric": "Kd",
    "Result": 634
  },
  {
    "Binder": "anti-IL-6 antibody, heavy chain F29Y, light chain WT (antibody, IgG1, V domains shown, Full IgG1 tested; V domains derived as in m2) VH: EVQLVESGGGLVQPGGSLRLSCAASGFTYSPFAMSWVRQAPGKGLEWVAKISPGGSWTYYSDTVTGRFTFSLDTSKSTAYLQMNSLRAEDTAVYYCARQLWGYYALDIWGQGTLVTVSS VL: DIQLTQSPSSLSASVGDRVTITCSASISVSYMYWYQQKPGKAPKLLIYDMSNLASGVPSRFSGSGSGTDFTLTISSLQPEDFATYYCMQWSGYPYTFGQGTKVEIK",
    "Metric": "Kd",
    "Result": 444
  }
]

Notebook: anti-IL-6 antibody, heavy chain WT, light chain I27L (antibody, IgG1, V domains shown, Full IgG1 tested; V domains derived as in m2) VH: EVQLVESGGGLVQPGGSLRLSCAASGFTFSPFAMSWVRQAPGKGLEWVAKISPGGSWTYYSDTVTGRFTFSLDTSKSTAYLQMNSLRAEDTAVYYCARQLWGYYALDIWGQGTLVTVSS VL: DIQLTQSPSSLSASVGDRVTITCSASLSVSYMYWYQQKPGKAPKLLIYDMSNLASGVPSRFSGSGSGTDFTLTISSLQPEDFATYYCMQWSGYPYTFGQGTKVEIK , Kd read as 553
